Biological target: T1, hMEX3B KH1/2 (T196A/R199A) (Homo sapiens, UniProt Q6ZN04 56-230, T196A;R199A)
T1 sequence: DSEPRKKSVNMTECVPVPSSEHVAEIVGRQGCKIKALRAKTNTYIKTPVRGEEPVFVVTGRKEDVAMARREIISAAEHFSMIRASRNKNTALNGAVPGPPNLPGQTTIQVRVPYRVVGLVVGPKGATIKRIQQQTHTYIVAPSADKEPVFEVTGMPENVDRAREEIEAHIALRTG
Experiment: ITC; N 0.68; ITC at 298 K, protein injected into RNA, both dialyzed in the same buffer (composition not in the material; purification SEC buffer 2 M NaCl, 20 mM Tris pH 7.5); NMR at 298 K, 0.1 mM protein
Details: protein: recombinant; tags: 6xHis-SUMO cleaved (ULP1)
property: pKd
// pKd: -log10(molar conc.)

Input: Give pKd for CUGAGCUGUAAC (ssRNA) [12-nt RNA]
Output: 5.22
